# System: BV-2
# measurementNotes: Antiinflammatory activity in LPS induced mouse BV-2 cells assessed as NO production at 10 uM by Griess reagent based assay relative to control
measure: level, % of control at 10 µM
Don't forget the unit after the value.

Lab note: need level, % of control at 10 µM for COc1c2n(cc(C(=O)Nc3cccc(-c4cn(-c5cccc(C(F)(F)F)c5)nn4)c3)c1=O)C[C@@H]1OCC[C@@H](C)N1C2=O on BV-2, anyone have it? 2.3%

// fetch BV-2 level, % of control at 10 µM for COc1c2n(cc(C(=O)Nc3ccc(-c4cn(-c5ccccc5C(F)(F)F)nn4)cc3)c1=O)C[C@@H]1OCC[C@@H](C)N1C2=O 91.1%

Query level, % of control at 10 µM on BV-2 for COc1c2n(cc(C(=O)Nc3ccccc3-c3cn(-c4ccccc4Cl)nn3)c1=O)C[C@@H]1OCC[C@@H](C)N1C2=O 65.9%

Kindly give each listed record's level, % of control at 10 µM.
1. COc1c2n(cc(C(=O)Nc3ccc(-c4cn(-c5ccccc5)nn4)cc3)c1=O)C[C@@H]1OCC[C@@H](C)N1C2=O
2. CCc1ccccc1-n1cc(-c2ccc(NC(=O)c3cn4c(c(OC)c3=O)C(=O)N3[C@H](C)CCO[C@H]3C4)cc2)nn1
3. COc1c2n(cc(C(=O)Nc3cccc(-c4cn(-c5cc(C(F)(F)F)ccc5C(F)(F)F)nn4)c3)c1=O)C[C@H]1OC[C@H](C)N1C2=O
4. COc1c2n(cc(C(=O)Nc3ccc(-c4cn(-c5cc(C(F)(F)F)ccc5C(F)(F)F)nn4)cc3)c1=O)C[C@@H]1OCC[C@@H](C)N1C2=O

1. 91.4%
2. 60.2%
3. 109%
4. 69%

----------
# Tested on: BV-2
# measurementNotes: Antiinflammatory activity in LPS induced mouse BV-2 cells assessed as NO production at 10 uM by Griess reagent based assay relative to control
Please respond with reported level, % of control at 10 µM for every item in the list.
Numbers only, in %.

Solved cases below.
Quick one: level, % of control at 10 µM for COc1c2n(cc(C(=O)Nc3ccc(-c4cn(-c5ccccc5Cl)nn4)cc3)c1=O)C[C@@H]1OCC[C@@H](C)N1C2=O ? 79.6

Param item = CCc1ccccc1-n1cc(-c2cccc(NC(=O)c3cn4c(c(OC)c3=O)C(=O)N3[C@H](C)CCO[C@H]3C4)c2)nn1 ; retrieve measured level, % of control at 10 µM. 59.9

Field request: level, % of control at 10 µM | item: CCc1ccccc1-n1cc(-c2cccc(NC(=O)c3cn4c(c(OC)c3=O)C(=O)N3[C@@H](C)CO[C@@H]3C4)c2)nn1 102

Batch of 8 compounds: report level, % of control at 10 µM for each.
1. COc1c2n(cc(C(=O)Nc3ccc(-c4cn(-c5ccccc5F)nn4)cc3)c1=O)C[C@@H]1OCC[C@@H](C)N1C2=O
2. COc1c2n(cc(C(=O)Nc3ccccc3-c3cn(-c4c(C)cc(C)cc4C)nn3)c1=O)C[C@@H]1OCC[C@@H](C)N1C2=O
3. COc1ccccc1-n1cc(-c2cccc(NC(=O)c3cn4c(c(OC)c3=O)C(=O)N3[C@@H](C)CO[C@@H]3C4)c2)nn1
4. COc1c2n(cc(C(=O)Nc3cccc(-c4cn(-c5ccccc5)nn4)c3)c1=O)C[C@@H]1OCC[C@@H](C)N1C2=O
5. COc1c2n(cc(C(=O)Nc3cccc(-c4cn(-c5ccc(F)cc5)nn4)c3)c1=O)C[C@@H]1OCC[C@@H](C)N1C2=O
6. COc1c2n(cc(C(=O)Nc3ccc(-c4cn(-c5cc(C(F)(F)F)cc(C(F)(F)F)c5)nn4)cc3)c1=O)C[C@@H]1OCC[C@@H](C)N1C2=O
7. COc1c2n(cc(C(=O)Nc3cccc(-c4cn(-c5ccc(F)cc5)nn4)c3)c1=O)C[C@H]1OC[C@H](C)N1C2=O
8. COc1ccccc1-n1cc(-c2ccccc2NC(=O)c2cn3c(c(OC)c2=O)C(=O)N2[C@H](C)CCO[C@H]2C3)nn1

1: 87.2; 2: 59.1; 3: 68; 4: 77.3; 5: 77; 6: 99.6; 7: 120; 8: 70.3

Dear colleague, could you send me level, % of control at 10 µM for each of the items below? Thanks.
1. COc1c2n(cc(C(=O)Nc3cccc(-c4cn(-c5ccccc5I)nn4)c3)c1=O)C[C@H]1OC[C@H](C)N1C2=O
2. COc1c2n(cc(C(=O)Nc3ccccc3-c3cn(-c4ccccc4F)nn3)c1=O)C[C@@H]1OCC[C@@H](C)N1C2=O
3. COc1c2n(cc(C(=O)Nc3ccc(-c4cn(-c5c(C)cc(C)cc5C)nn4)cc3)c1=O)C[C@@H]1OCC[C@@H](C)N1C2=O
4. COc1c2n(cc(C(=O)Nc3ccc(-c4cn(-c5ccc(C(F)(F)F)cc5)nn4)cc3)c1=O)C[C@@H]1OCC[C@@H](C)N1C2=O

120
78.7
78.6
76.2

Hi! Can you tell me level, % of control at 10 µM for each of these compounds?
1. COc1c2n(cc(C(=O)Nc3cccc(-c4cn(-c5ccccc5C(F)(F)F)nn4)c3)c1=O)C[C@@H]1OCC[C@@H](C)N1C2=O
2. COc1c2n(cc(C(=O)Nc3cccc(-c4cn(-c5c(C)cc(C)cc5C)nn4)c3)c1=O)C[C@@H]1OCC[C@@H](C)N1C2=O
3. COc1c2n(cc(C(=O)Nc3cccc(-c4cn(-c5cc(C(F)(F)F)cc(C(F)(F)F)c5)nn4)c3)c1=O)C[C@@H]1OCC[C@@H](C)N1C2=O
4. COc1c2n(cc(C(=O)Nc3cccc(-c4cn(-c5c(C)cc(C)cc5C)nn4)c3)c1=O)C[C@H]1OC[C@H](C)N1C2=O
5. COc1c2n(cc(C(=O)Nc3cccc(-c4cn(-c5cccc(C(F)(F)F)c5)nn4)c3)c1=O)C[C@H]1OC[C@H](C)N1C2=O
6. COc1c2n(cc(C(=O)Nc3ccc(-c4cn(-c5ccc(F)cc5)nn4)cc3)c1=O)C[C@@H]1OCC[C@@H](C)N1C2=O

3.88
46
71.1
89.6
78.4
82.1

Tell me the measured level, % of control at 10 µM of CCc1ccccc1-n1cc(-c2ccccc2NC(=O)c2cn3c(c(OC)c2=O)C(=O)N2[C@H](C)CCO[C@H]2C3)nn1 , please. 76.3

----------
# measurementNotes: Cytotoxicity against mouse BV-2 cells assessed as cell viability at 1 uM by MTT assay relative to control
# Assay type: toxicity, cell-based
# measurementContext: read-out: Activity
Binary label based on viability at 1 µM with cut-off 90%: below gives YES, not below gives NO.

Observe how each entry below is paired with its result.
Find out if reported viability at 1 µM for COc1c2n(cc(C(=O)Nc3cccc(-c4cn(-c5ccc(C(F)(F)F)cc5)nn4)c3)c1=O)C[C@@H]1OCC[C@@H](C)N1C2=O is less than 90% YES

Quick check: does COc1c2n(cc(C(=O)Nc3cccc(-c4cn(-c5ccccc5F)nn4)c3)c1=O)C[C@@H]1OCC[C@@H](C)N1C2=O have viability at 1 µM under 90%? NO

Take the compound COc1c2n(cc(C(=O)Nc3cccc(-c4cn(-c5cc(C(F)(F)F)ccc5C(F)(F)F)nn4)c3)c1=O)C[C@@H]1OCC[C@@H](C)N1C2=O and say whether its viability at 1 µM is less than 90%. NO

***
API: query returns whether the compound falls strictly under 90% in viability at 1 µM. Query: COc1c2n(cc(C(=O)Nc3ccccc3-c3cn(-c4ccccc4I)nn3)c1=O)C[C@@H]1OCC[C@@H](C)N1C2=O NO

Is the reported viability at 1 µM for COc1ccccc1-n1cc(-c2cccc(NC(=O)c3cn4c(c(OC)c3=O)C(=O)N3[C@@H](C)CO[C@@H]3C4)c2)nn1 strictly below 90%? NO

----------
Hi there, I'd appreciate the recorded viability at 10 µM for every entry that follows.
# measurementNotes: Cytotoxicity against mouse BV-2 cells assessed as cell viability at 10 uM by MTT assay relative to control
# Type: toxicity, cell-based
# measurementContext: read-out: Activity

Any idea what its viability at 10 µM is? The molecule is COc1c2n(cc(C(=O)Nc3ccc(-c4cn(-c5cc(C(F)(F)F)cc(C(F)(F)F)c5)nn4)cc3)c1=O)C[C@@H]1OCC[C@@H](C)N1C2=O 71.1%

State the recorded viability at 10 µM for every item in the following list.
1. COc1c2n(cc(C(=O)Nc3cccc(-c4cn(-c5ccccc5F)nn4)c3)c1=O)C[C@@H]1OCC[C@@H](C)N1C2=O
2. COc1c2n(cc(C(=O)Nc3cccc(-c4cn(-c5cc(C(F)(F)F)cc(C(F)(F)F)c5)nn4)c3)c1=O)C[C@H]1OC[C@H](C)N1C2=O

1. 68.6%
2. 69.6%
